- experimental-target: Tyrosine-protein kinase BTK (Homo sapiens)
- Sequence (Q06187 whole entry): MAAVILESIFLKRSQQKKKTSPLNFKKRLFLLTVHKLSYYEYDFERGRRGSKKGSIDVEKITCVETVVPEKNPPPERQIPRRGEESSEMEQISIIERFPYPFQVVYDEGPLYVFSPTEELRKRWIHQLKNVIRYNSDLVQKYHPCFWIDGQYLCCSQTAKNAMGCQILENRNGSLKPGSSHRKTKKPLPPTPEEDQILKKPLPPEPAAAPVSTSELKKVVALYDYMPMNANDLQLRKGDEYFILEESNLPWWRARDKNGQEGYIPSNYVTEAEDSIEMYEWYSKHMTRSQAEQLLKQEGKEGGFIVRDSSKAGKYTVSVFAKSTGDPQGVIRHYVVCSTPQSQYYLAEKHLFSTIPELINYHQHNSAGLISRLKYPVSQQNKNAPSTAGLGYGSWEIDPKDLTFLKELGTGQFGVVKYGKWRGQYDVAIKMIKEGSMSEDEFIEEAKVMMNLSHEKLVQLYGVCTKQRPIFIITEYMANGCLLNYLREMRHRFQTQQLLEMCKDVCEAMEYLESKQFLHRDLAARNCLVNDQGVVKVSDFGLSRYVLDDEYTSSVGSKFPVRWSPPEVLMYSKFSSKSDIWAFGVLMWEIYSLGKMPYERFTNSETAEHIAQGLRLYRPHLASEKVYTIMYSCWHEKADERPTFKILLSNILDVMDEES
- experiment: Inhibition of BTK (unknown origin)
parameter: IC50

[ask] Indicate its recorded IC50; the compound in question is "C=CC(=O)Nc1cccc(Nc2nc(Nc3ccc(NC(=O)CN4CCOCC4)cc3)ncc2Cl)c1"
[reply] < 10 nM

---

- experimental-target: UniProtKB P00533
- Sequence (P00533 whole entry): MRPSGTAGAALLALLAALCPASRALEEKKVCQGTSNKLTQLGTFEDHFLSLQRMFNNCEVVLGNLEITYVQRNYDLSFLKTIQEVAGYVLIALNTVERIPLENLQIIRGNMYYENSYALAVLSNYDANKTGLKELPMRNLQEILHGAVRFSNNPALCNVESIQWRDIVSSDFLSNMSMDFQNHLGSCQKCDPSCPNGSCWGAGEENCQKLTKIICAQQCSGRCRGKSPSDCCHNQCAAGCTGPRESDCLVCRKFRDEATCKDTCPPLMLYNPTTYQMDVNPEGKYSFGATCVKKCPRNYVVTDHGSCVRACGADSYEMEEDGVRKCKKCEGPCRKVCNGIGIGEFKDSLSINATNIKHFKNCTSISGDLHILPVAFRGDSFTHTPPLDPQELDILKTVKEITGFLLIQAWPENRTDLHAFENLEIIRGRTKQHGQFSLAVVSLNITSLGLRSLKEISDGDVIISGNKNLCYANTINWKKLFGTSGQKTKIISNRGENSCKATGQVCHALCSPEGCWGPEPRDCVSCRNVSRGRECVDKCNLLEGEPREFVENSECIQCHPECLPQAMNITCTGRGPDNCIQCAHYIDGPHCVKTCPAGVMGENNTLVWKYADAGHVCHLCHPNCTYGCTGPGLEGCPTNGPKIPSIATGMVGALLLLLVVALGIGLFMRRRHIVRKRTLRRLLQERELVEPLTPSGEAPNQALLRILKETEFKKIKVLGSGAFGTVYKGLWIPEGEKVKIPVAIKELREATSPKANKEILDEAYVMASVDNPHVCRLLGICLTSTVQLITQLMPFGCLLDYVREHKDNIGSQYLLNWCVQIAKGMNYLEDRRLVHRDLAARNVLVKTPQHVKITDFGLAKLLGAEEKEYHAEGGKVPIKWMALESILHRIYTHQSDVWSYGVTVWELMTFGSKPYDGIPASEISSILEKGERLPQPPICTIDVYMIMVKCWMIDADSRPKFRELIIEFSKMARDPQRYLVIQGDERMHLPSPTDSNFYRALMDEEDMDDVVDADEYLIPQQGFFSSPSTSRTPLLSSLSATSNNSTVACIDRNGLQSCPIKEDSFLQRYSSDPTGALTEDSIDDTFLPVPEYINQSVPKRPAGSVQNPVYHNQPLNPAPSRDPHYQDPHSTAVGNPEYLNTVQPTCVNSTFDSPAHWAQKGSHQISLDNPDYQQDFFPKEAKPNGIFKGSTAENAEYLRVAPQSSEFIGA
pIC50: −log10 of the molar value.
parameter: pIC50

[ask] Report measured pIC50 on UniProtKB P00533; entry: "C=CC(=O)Nc1cccc(Nc2nc(Nc3ccc(NC(=O)CN4CCOCC4)cc3)ncc2Cl)c1"
[reply] > 8.00

---

- experimental-target: Tyrosine-protein kinase JAK3 (Homo sapiens)
- Sequence (P52333 whole entry): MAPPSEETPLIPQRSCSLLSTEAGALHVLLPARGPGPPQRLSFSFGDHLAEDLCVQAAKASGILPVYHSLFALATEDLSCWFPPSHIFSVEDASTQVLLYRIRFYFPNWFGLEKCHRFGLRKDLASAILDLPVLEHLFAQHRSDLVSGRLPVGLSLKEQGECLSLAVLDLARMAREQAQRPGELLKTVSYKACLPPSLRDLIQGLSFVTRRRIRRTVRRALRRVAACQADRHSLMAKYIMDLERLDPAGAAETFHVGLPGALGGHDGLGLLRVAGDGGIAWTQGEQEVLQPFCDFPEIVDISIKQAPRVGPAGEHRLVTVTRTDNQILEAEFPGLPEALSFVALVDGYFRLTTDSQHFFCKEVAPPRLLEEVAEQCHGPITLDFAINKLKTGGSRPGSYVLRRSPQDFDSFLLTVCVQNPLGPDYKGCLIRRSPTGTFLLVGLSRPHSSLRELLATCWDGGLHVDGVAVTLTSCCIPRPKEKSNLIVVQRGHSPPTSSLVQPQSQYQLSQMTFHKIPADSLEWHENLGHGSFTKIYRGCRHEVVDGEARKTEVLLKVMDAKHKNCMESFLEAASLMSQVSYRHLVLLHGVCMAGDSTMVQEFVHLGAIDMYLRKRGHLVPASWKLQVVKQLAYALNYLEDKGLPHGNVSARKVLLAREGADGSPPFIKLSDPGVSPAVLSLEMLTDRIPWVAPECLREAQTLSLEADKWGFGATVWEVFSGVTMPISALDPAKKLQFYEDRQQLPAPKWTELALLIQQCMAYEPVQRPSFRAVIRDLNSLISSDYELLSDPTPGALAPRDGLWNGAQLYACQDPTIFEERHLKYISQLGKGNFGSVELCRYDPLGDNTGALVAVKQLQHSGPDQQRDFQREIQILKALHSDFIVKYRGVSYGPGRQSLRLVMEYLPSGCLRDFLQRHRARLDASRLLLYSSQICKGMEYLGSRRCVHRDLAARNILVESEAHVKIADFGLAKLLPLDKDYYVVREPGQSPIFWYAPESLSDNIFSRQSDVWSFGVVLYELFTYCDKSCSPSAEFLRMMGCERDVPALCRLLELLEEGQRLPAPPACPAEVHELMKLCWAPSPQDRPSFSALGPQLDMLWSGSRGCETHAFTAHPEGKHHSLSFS
- experiment: Inhibition of recombinant human N-terminal GST-tagged JAK3 (781 to end residues) expressed in baculovirus infected Sf9 cells using poly (Glu,Tyr) 4:1 as substrate incubated for 60 mins in presence of ATP by ADP-Glo kinase assay
Form field: log10 of IC50 (one value per entry).
Kindly note that the scale is log10 and the underlying IC50 is in nM.

[ask] Using the record for "C=CC(=O)Nc1cccc(Oc2nc(Nc3ccc(OCCN4CCOCC4)cc3)nc3ccsc23)c1" , state its measured log10 of IC50.
[reply] 1.96

[ask] Given the molecule "C=CC(=O)Nc1cccc(Oc2nc(Nc3ccc(CN4CCOCC4)cc3)nc3ccsc23)c1" , write its reported log10 of IC50.
[reply] 1.93

[ask] Provide one value: measured log10 of IC50 of "C=CC(=O)Nc1cccc(Nc2nc(Nc3ccc(CN4CCOCC4)cc3)nc3ccsc23)c1"
[reply] 1.77

[ask] Dear colleague, please send me the reported log10 of IC50 for "C=CC(=O)Nc1cccc(Oc2nc(Nc3ccc(OCCCN4CCOCC4)cc3)nc3ccsc23)c1" when you can.
[reply] 1.95

[ask] Retrieve log10 of IC50 measured for "C=CC(=O)Nc1cccc(Oc2nc(Nc3ccc(OCCCN4CCOCC4)c(Cl)c3)nc3ccsc23)c1" and print it.
[reply] 0.14

[ask] // Input: "C=CC(=O)Nc1cccc(Oc2nc(Nc3ccc(SCCCN4CCOCC4)cc3)nc3ccsc23)c1" . Output its log10 of IC50 only.
[reply] 1.66

[ask] Give the measured log10 of IC50 for "C=CC(=O)Nc1cccc(Nc2nc(Nc3ccc(OCCOC)cc3)ncc2F)c1"
[reply] 1.82

Recorded values, source ChEMBL document CHEMBL4613238.
